System: SK-MEL-5
assayOverview: NCI tumour cell line growth inhibition, 48 h
Calls of active or inactive are those of the source. Cut-off read from the data, not from the text of the source: active = GI50 up to about 1.1 µM and inactive = higher.
Examples of compounds with documented GI50 follow.
quantityMeasured: GI50

compound	result
O=C(O)CCCNS(=O)(=O)c1ccccc1	> 100 µM (inactive)
COc1ccc(/C=N/N2C(=O)c3c(N)c(C#N)c(-c4ccccc4)c(-c4ccccc4)c3C2=O)cc1	> 100 µM (inactive)
Cc1ccc(/C=N/n2c(-c3ccc(C)cc3)n[nH]c2=O)cc1	38.1 µM (inactive)
CN/C(=N\n1cnnc1)OC	> 100 µM (inactive)
O=C1OC2(CC1C1(O)C3CC4CC(C3)CC1C4)C1CC3CC(C1)CC2C3 (stereo unspecified)	38.3 µM (inactive)
O=C(CCCNc1nc(-c2ccccc2)cs1)c1cccs1	> 100 µM (inactive)

###

Test system: SF-268
assayOverview: NCI tumour cell line growth inhibition, 48 h
Calls of active or inactive are those of the source. Cut-off read from the data, not from the text of the source: active = GI50 up to about 1.1 µM and inactive = higher.
Outcomes: label 1 (active), label 0 (inactive)

compound	discreteLabel
COC(=O)[C@@H]1C(=O)O[C@@H](c2ccc(OC)c(OC)c2OC)[C@@H]1C(=O)OC.COC(=O)[C@H]1C(=O)O[C@@H](c2ccc(OC)c(OC)c2OC)[C@@H]1C(=O)OC	label 0
CCCc1cn2c(/C=N/NC(=N)N)c(-c3ccc([N+](=O)[O-])cc3)nc2s1	label 0
CCC(Oc1ccc(OC)c2c1C(=O)CCC2)C(=O)O (stereo not drawn)	label 0
Cc1ccc(Nc2nc(O)c3[nH]cnc3n2)cc1CO	label 0
CNC(=O)c1cc2nc3ccccc3c(=O)n2c2ccccc12	label 0
Cc1nc2c(c(=O)[nH]1)S/C(=C(/C#N)c1nc3ccccc3[nH]1)N2c1ccccc1	label 0
C/C=C1/CN2CCc3c([nH]c4ccccc34)[C@@H]2C[C@@H]1Cc1nccc2c1[nH]c1cc(O)ccc12	label 0
COc1ccc2c3c([nH]c2c1[N+](=O)[O-])C(C)N(Cc1ccc([N+](=O)[O-])cc1)CC3 (stereo not drawn)	label 0
Fc1c(F)c(C(F)(F)F)c(F)c(F)c1N/N=C/c1cn(Cc2ccccc2)c2ccccc12	label 0
O=c1ccc2nc3ccc(O)cc3oc-2c1	label 0
Cc1c2cc[n+](COC(=O)c3ccccc3)cc2c(C)c2c1[nH]c1ccccc12	label 1
CCOC(=O)c1cc(C2CCN(c3ccccc3)C2=O)c(C(=O)/C=C(/C)O)[nH]1 (stereo not drawn)	label 0
CCC/C=C1\CCC(CN(C)C)C1=O (stereo not drawn)	label 0
CCCCCCCCCCC(O)[C@H]1CCC(C2CC[C@H]([C@H](O)CCCCCCCCCCC(O)CC3=CC(C)OC3=O)O2)O1 (stereo partly drawn)	label 0
CCn1c(-c2c(Cl)cc(O)cc2Cl)cc2c(Cl)cc(O)cc21	label 0
CC(=O)c1cc2c(s1)C(=O)c1ccccc1C2=O	label 0
COC[C@H]1C(=O)NCC(=O)N2N=CCC[C@H]2C(=O)N(O)[C@H](C)C(=O)O[C@@H](C(C)C)[C@H](NC(=O)[C@@](C)(O)[C@]2(O)CC[C@@H](CC(C)C)[C@H](C)O2)C(=O)N2NCCC[C@@H]2C(=O)N1O	label 1
C=C1C(=O)O[C@H]2C/C(C)=C/CC/C(C)=C/CC[C@@](C)(O)[C@@H](I)C[C@@H]12	label 0

###

System: SNB-19
assayOverview: NCI tumour cell line growth inhibition, 48 h
Active and inactive are the calls of the source. Cut-off read from the data, not from the text of the source: active = GI50 up to about 1.1 µM and inactive = higher.
Examples of compounds with documented GI50 follow.
quantityMeasured: GI50

compound	result
CC(=O)c1c(SCCN2CCCC2)n(-c2ccccc2)c(=S)n(-c2ccccc2)c1=O	28.4 µM (inactive)
CCOc1cc2c(cc1O)CC[C@@H]1[C@@H]2CC[C@]2(C)C(OS(=O)OC3CC[C@@H]4[C@H]5CCc6cc(O)c(OCC)cc6[C@@H]5CC[C@@]34C)CC[C@@H]12 (stereo partly drawn)	2.64 µM (inactive)
CC(=O)c1c(-c2ccco2)c(C#N)c(=S)n(C2OC(CO)C(O)C(O)C2O)c1C (stereo not drawn)	83.6 µM (inactive)
C[C@H]1CC[C@@]2(NC1)O[C@H]1C[C@H]3[C@@H]4CC[C@H]5C[C@@H](O)CC[C@]5(C)[C@H]4CC[C@]3(C)[C@H]1[C@@H]2C	> 100 µM (inactive)
CC(C)C(/C=C/c1ccc(Cl)cc1)=N\NC(=S)NN	76.4 µM (inactive)
CN(C)CCNC(=O)c1cc([N+](=O)[O-])cc2ccc(-c3ccccc3)nc12	8.02 µM (inactive)
CCOC(=O)c1cn2c(n1)sc1cc(OC)ccc12	9.82 µM (inactive)
O=c1c2ccccc2n2c(-c3ccccc3O)nnc2n1-c1ccccc1	> 100 µM (inactive)
